- target under test: Human BCL-XL protein (N-terminal HiBiT tagged BCL-XL expressed in HT1080 cells) (Homo sapiens)
- Construct: expressed in transfected cells; host or cells: HT-1080 (ATCC CCL-121), stably transduced with lentivirus pLV-UBC-N-HiBiT-BCL-XL-PGK-puro and selected with puromycin
- Sequence (Q07817 whole entry): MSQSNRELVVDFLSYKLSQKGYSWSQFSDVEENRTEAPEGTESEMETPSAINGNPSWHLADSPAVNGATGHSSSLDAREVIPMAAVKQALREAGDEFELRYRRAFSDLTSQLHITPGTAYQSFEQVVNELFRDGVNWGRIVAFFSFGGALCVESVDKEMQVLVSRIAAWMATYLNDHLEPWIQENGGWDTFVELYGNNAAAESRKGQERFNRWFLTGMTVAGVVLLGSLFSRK
- assay method text: HiBiT Based Degradation Assay
- Type: cell-based
- stated conditions: bottom of BCL-XL degradation curve (remaining HiBiT-BCL-XL signal vs DMSO control), HT1080 cells, 24 hours incubation
property measured: Ymin (24 h)

>  <compound>
COc1c(NC(=O)CN2CCC(CC[C@@H](C)Oc3ccc(-c4ccc(N5CCc6cccc(C(=O)Nc7nc8ccccc8s7)c6C5)nc4C(=O)O)c(C)c3)CC2)ccc2c(C3CCC(=O)NC3=O)nn(C)c12 (single isomer, unassigned) [Compound 223b]

>  <property measured>
Ymin (24 h)

>  <meas value>
A (Ymin < 30%)

$$$$
>  <compound>
Cc1cc(OC2CCC3(CC2)CCN(CC(=O)Nc2ccc4c(C5CCC(=O)NC5=O)nn(C)c4c2)CC3)ccc1-c1ccc(N2CCc3cccc(C(=O)Nc4nc5ccccc5s4)c3C2)nc1C(=O)O (centres unmarked) [Compound 221]

>  <property measured>
Ymin (24 h)

>  <meas value>
A (Ymin < 30%)

$$$$

Origin of values: patent US20260216170A1
